# experimental_target: Peroxisome proliferator-activated receptor alpha (Homo sapiens, UniProt Q07869)
# Sequence (Q07869 whole entry): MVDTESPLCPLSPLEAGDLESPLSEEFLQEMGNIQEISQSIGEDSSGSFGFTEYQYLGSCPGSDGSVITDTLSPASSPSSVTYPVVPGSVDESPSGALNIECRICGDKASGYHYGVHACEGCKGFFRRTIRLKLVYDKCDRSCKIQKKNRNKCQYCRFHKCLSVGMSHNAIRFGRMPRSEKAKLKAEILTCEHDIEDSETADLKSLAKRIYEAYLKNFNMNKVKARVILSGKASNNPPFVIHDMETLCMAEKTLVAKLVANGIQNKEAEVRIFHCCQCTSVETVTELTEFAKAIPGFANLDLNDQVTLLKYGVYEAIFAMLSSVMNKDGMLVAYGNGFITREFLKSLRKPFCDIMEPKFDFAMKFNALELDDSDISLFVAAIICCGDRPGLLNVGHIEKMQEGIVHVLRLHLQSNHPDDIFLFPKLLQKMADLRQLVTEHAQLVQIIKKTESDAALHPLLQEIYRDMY
# procedure_summary: Transactivation activity for human Peroxisome proliferator activated receptor alpha
For each entry below, report its log10(EC50) value.
Scale type: logarithmic (base 10). Underlying EC50 unit: nM.

Recorded result, Cc1ccc(OC(C)(Cc2ccc(OCCc3nc(-c4cccc(-c5ccccc5)c4)oc3C)cc2)C(=O)O)cc1 (stereo unspecified) , log10(EC50): 1.36

Recorded result, Cc1oc(-c2ccc(-c3ccccc3)cc2)nc1CCOc1ccc(CC(C)(Oc2ccc(C(C)(C)C)cc2)C(=O)O)cc1 (stereo unspecified) , log10(EC50): 2.41

Recorded result, Cc1ccc(OC(C)(Cc2ccc(OCCc3nc(-c4ccc(-c5ccccc5)cc4)oc3C)cc2)C(=O)O)cc1 (stereo unspecified) , log10(EC50): 1.59

Recorded result, Cc1oc(-c2ccccc2)nc1CCOc1ccc(CC(C)(Oc2ccc(C(C)(C)C)cc2)C(=O)O)cc1 (stereo unspecified) , log10(EC50): 1.04

Recorded result, Cc1ccc(OC(C)(Cc2ccc(OCCc3nc(-c4ccccc4)oc3C)cc2)C(=O)O)cc1 (stereo unspecified) , log10(EC50): 0.85

Recorded result, Cc1oc(-c2cccc(-c3ccccc3)c2)nc1CCOc1ccc(CC(C)(Oc2ccc(C(C)(C)C)cc2)C(=O)O)cc1 (stereo unspecified) , log10(EC50): 1.69

* * *

# experimental_target: Peroxisome proliferator-activated receptor alpha (Mus musculus)
# procedure_summary: Transactivation activity for mouse Peroxisome proliferator activated receptor alpha
experimental_endpoint: pEC50
Kindly note that pEC50 refers to -log10 of the concentration in mol/L and answer with the value alone.

Recorded result, Cc1ccc(OC(C)(Cc2ccc(OCCc3nc(-c4ccc(-c5ccccc5)cc4)oc3C)cc2)C(=O)O)cc1 (stereo not drawn) , pEC50: 5.98

Recorded result, Cc1ccc(OC(C)(Cc2ccc(OCCc3nc(-c4cccc(-c5ccccc5)c4)oc3C)cc2)C(=O)O)cc1 (stereo not drawn) , pEC50: 6.82

Recorded result, Cc1oc(-c2ccc(-c3ccccc3)cc2)nc1CCOc1ccc(CC(C)(Oc2ccccc2)C(=O)O)cc1 (stereo not drawn) , pEC50: 5.63

Recorded result, Cc1ccc(OC(C)(Cc2ccc(OCCc3nc(-c4ccccc4)oc3C)cc2)C(=O)O)cc1 (stereo not drawn) , pEC50: 6.23

Recorded result, Cc1oc(-c2ccccc2)nc1CCOc1ccc(CC(C)(Oc2ccc(C(C)(C)C)cc2)C(=O)O)cc1 (stereo not drawn) , pEC50: 6.68

Recorded result, Cc1oc(-c2cccc(-c3ccccc3)c2)nc1CCOc1ccc(CC(C)(Oc2ccc(C(C)(C)C)cc2)C(=O)O)cc1 (stereo not drawn) , pEC50: 7.04

Recorded result, Cc1oc(-c2ccc(-c3ccccc3)cc2)nc1CCOc1ccc(CC(C)(Oc2ccc(C(C)(C)C)cc2)C(=O)O)cc1 (stereo not drawn) , pEC50: 5.93

Recorded result, Cc1oc(-c2cccc(-c3ccccc3)c2)nc1CCOc1ccc(CC(C)(Oc2ccccc2)C(=O)O)cc1 (stereo not drawn) , pEC50: 6.76

* * *

For each entry below, report its IC50 value.
# experimental_target: Peroxisome proliferator-activated receptor alpha (Mus musculus, UniProt P23204)
# Sequence (P23204 whole entry): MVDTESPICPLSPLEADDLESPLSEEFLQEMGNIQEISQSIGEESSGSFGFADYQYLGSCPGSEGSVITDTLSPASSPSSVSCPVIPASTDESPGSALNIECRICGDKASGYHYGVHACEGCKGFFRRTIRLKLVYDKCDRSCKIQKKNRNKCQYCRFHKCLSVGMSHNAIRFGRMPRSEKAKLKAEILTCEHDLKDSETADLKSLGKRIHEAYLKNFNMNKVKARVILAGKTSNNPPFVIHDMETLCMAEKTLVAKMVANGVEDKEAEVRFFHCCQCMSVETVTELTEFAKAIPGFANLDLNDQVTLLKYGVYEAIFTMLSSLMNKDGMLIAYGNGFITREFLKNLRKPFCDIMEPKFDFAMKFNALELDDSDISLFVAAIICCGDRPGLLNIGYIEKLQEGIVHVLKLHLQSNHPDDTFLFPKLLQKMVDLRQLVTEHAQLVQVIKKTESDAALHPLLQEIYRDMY
# procedure_summary: In vitro inhibition of mouse Peroxisome proliferator activated receptor alpha
// return numeric value only (unit: nM, not printed)

Recorded result, Cc1ccc(OC(C)(Cc2ccc(OCCc3nc(-c4ccccc4)oc3C)cc2)C(=O)O)cc1 (centres undefined) , IC50: 1400

Recorded result, Cc1oc(-c2ccccc2)nc1CCOc1ccc(CC(C)(Oc2ccc(C(C)(C)C)cc2)C(=O)O)cc1 (centres undefined) , IC50: 515

Recorded result, Cc1ccc(OC(C)(Cc2ccc(OCCc3nc(-c4ccc(-c5ccccc5)cc4)oc3C)cc2)C(=O)O)cc1 (centres undefined) , IC50: 1460

Recorded result, Cc1oc(-c2cccc(-c3ccccc3)c2)nc1CCOc1ccc(CC(C)(Oc2ccccc2)C(=O)O)cc1 (centres undefined) , IC50: 404

* * *

# experimental_target: Peroxisome proliferator-activated receptor alpha (Homo sapiens, UniProt Q07869)
# procedure_summary: In vitro inhibition of human Peroxisome proliferator activated receptor alpha
experimental_endpoint: pIC50
Kindly note that pIC50 refers to -log10 of the concentration in mol/L and answer with the value alone.

Recorded result, Cc1ccc(OC(C)(Cc2ccc(OCCc3nc(-c4cccc(-c5ccccc5)c4)oc3C)cc2)C(=O)O)cc1 (stereo not given) , pIC50: 6.51

Recorded result, Cc1oc(-c2cccc(-c3ccccc3)c2)nc1CCOc1ccc(CC(C)(Oc2ccc(C(C)(C)C)cc2)C(=O)O)cc1 (stereo not given) , pIC50: 6.88

Recorded result, Cc1oc(-c2ccccc2)nc1CCOc1ccc(CC(C)(Oc2ccc(C(C)(C)C)cc2)C(=O)O)cc1 (stereo not given) , pIC50: 6.83

Recorded result, Cc1ccc(OC(C)(Cc2ccc(OCCc3nc(-c4ccccc4)oc3C)cc2)C(=O)O)cc1 (stereo not given) , pIC50: 7.19

Recorded result, Cc1ccc(OC(C)(Cc2ccc(OCCc3nc(-c4ccc(-c5ccccc5)cc4)oc3C)cc2)C(=O)O)cc1 (stereo not given) , pIC50: 6.43
